# Tested on: DLD-1 colon
# test: NCI tumour cell line growth inhibition, 48 h
Recorded TGI values for a group of molecules are listed next.
reported-property: TGI

CCCCCCCCCCCCCC(=O)CBr	34.3 µM
CC(=O)NC1=C(C)C(=O)c2c(nc3n2CCC3O)C1=N (stereo unspecified)	25.1 µM
O=c1cc(-c2ccccc2)c2cc3c(=O)ccoc3cc2o1	> 100 µM
N#CC(C(=O)C(=O)NCCCNC(=O)C(=O)C(C#N)c1ccccc1)c1ccccc1 (stereo unspecified)	> 100 µM
CSc1nc2c(nc(N)n2C2OCC(O)C(O)C2O)c(=O)n1C (stereo unspecified)	> 100 µM
CCOC(=O)/C=C(\C)c1ccc(OC)cc1	> 100 µM

###

# Tested on: MALME-3M melanoma
# test: NCI tumour cell line growth inhibition, 48 h
Quick rule for you: TGI at 30 µM or higher means Satisfied, lower means Not satisfied.

CSc1nc2c(nc(N)n2C2OCC(O)C(O)C2O)c(=O)n1C (stereo unspecified)	Satisfied
CCCCOC(=O)C(O)Cc1ccoc1 (stereo unspecified)	Satisfied
OCCCCCCOc1ccc(-c2cc(-c3ccccn3)nc(-c3ccccn3)c2)cc1	Not satisfied
COc1ccc(NC(=O)c2cc(OC)c(OC)c(OC)c2)cc1	Satisfied
CC12CCC(=O)C=C1CCC1C2C(O)CC2(C)C(c3csc(N)n3)CCC12 (stereo unspecified)	Satisfied
C1=C\CCCCN2C[C@H]3CCCC/C=C\CCCCN4CC[C@@H]([C@H](CCCCCC/1)C4)[C@H](C3)C2	Not satisfied
CN(CCOc1ccc(C#N)cc1)CCOc1ccc(C#N)cc1	Satisfied
CC1=C(O)C(=O)C2C(=O)C1C(C)C2c1ccc(Cl)cc1 (stereo unspecified)	Satisfied
NC(=O)N1N=C2c3ccccc3SC[C@H]2[C@@H]1c1ccccc1	Satisfied
c1ccc(CSc2nc(N3CCOCC3)c3cn[nH]c3n2)cc1	Satisfied

###

Recorded TGI values for a group of molecules are listed next.
# Test system: A549 NSCLC
# test: NCI tumour cell line growth inhibition, 48 h
reported-property: TGI

Cc1nc2c(sc3nc4ccccc4n32)c(=O)[nH]1	> 100 µM
COc1ccc(-c2cc(N3CCN(c4ccccc4)CC3)c(C#N)c(=O)o2)cc1	> 100 µM
N#Cc1c(NC(=S)NC(=O)c2ccccc2)nc2c(c1-c1ccccc1)CCCC2	> 100 µM
OC1COC(n2c3ccc(Br)cc3c3ccc4c5ccccc5[nH]c4c32)C(O)C1O (stereo unspecified)	23.7 µM
N#C/C(=C\c1cccc(O)c1)C(N)=O	> 100 µM
COc1ccc(NC(=O)/C(CC2=Nc3ccc([N+](=O)[O-])cc3NC2O)=N\NC(=O)C[N+](C)(C)C)c(OC)c1 (stereo unspecified)	> 100 µM
COc1ccc2c(c1)c1c(n2CCN2CCCCC2)-c2ccccc2CC1	36.6 µM
CC(=O)OCC1OC(n2ccc(=O)[nH]c2=O)C(OC(C)=O)C1OC(C)=O (stereo unspecified)	> 100 µM
O=C(CC(C(=O)c1ccoc1)c1ccco1)c1ccco1 (stereo unspecified)	> 100 µM
Cc1ccc(NC(=O)/C(=N\Nc2ccc([N+](=O)[O-])cc2[N+](=O)[O-])C2C(=O)NC(=O)NC2=O)cc1	> 100 µM
C=CC[C@H]1[C@H](O[Si](C)(C)C(C)(C)C)C=CC(=O)[C@@H]1CC(=O)N(Cc1ccccc1)Cc1ccccc1	> 100 µM
Cc1nc2ccccc2c(=O)[nH]1	> 100 µM
CCCCCCCCCCCCCC(=O)CBr	50.7 µM
Cn1ccnc1C(=O)/C=C/c1ccc(CC(=O)Nc2ccccc2)cc1	> 25 µM
Cc1cc2c(c(C=NCc3ccccc3)c1)OC1(C=C2)Oc2ccccc2C(=O)N1C (stereo unspecified)	> 100 µM
CNC(=O)c1[nH]cnc1/N=N/N(C)N	> 100 µM
C[C@@H]1COCCN1c1cc(C2(S(C)(=N)=O)CC2)nc(-c2ccnc3[nH]ccc23)n1 (stereo partly specified)	35.2 µM
C=CC[C@H](C)CCC(=O)N1[C@H]2CC3CC[C@@]2(CS1(=O)=O)C3(C)C	> 100 µM
Cn1c2ccccc2c(=NNc2ccc(C(=O)O)cc2)c2ccccc21	38.7 µM
COc1ccc2oc3cccc(NCCN(C)C)c3c(=O)c2c1	28.2 µM
O=C1C(Cl)=C(Nc2cccc(O)c2)C(=O)N1c1cc(Cl)c(Cl)cc1Cl	47.5 µM

Every entry's value here was drawn from PubChem BioAssay (NCI).
